TGT: T1, bovine GPR7 (bovine, UniProt Q8MJV3 1-331)
T1 sequence: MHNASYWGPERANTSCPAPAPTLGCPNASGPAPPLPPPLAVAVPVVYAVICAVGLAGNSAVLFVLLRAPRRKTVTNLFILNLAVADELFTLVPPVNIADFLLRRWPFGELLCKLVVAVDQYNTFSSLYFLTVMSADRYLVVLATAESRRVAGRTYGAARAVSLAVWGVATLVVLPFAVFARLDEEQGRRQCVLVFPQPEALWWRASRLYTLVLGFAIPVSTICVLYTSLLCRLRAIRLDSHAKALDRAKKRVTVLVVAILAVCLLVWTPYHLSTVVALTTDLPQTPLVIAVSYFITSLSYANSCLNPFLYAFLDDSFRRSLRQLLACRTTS
EXPERIMENTAL_PROTOCOL: cell-based or functional assay
Non-standard residues stand in square brackets, D forms with d. No end group written: not given here. Trp(6-Br) = N[C@@H](Cc1c[nH]c2cc(Br)ccc12)C(=O)O; dTrp(6-Br) = N[C@H](Cc1c[nH]c2cc(Br)ccc12)C(=O)O
RECORDED_ENDPOINT: IC50 of intracellular cAMP production suppression (cAMP production inhibition rate) (nM)

{"BINDER": "[Trp(6-Br)]YKPAAGHSSYSVGRAAGLLSGLRRSPYA [LTrp(6Br)1-human GPR7L(29)]", "REPORTED_VALUE": 1.8}
{"BINDER": "WYKPAAGSHHYSVGRAAGLLSSFH (also called rat GPR7 ligand A) [Trp1-rat GPR7L(24)]", "REPORTED_VALUE": 0.51}
{"BINDER": "WYKPTAGQGYYSVGRAAGLLSGFHRSPYA (also called bovine GPR7 ligand B; non-brominated GPR7L) [Trp1-bovine GPR7L(29)]", "REPORTED_VALUE": 1.2}

(A) WYKPAAGSHHYSVGRAAGLLSSFHRFPST (also called rat GPR7 ligand B) [Trp1-rat GPR7L(29)]
(B) [dTrp(6-Br)]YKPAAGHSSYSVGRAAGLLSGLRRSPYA [DTrp(6Br)1-human GPR7L(29)]
(C) [Trp(6-Br)]YKPTAGQGYYSVGRAAGLLSGFHRSPYA [LTrp(6Br)1-bovine GPR7L(29)]
(D) [dTrp(6-Br)]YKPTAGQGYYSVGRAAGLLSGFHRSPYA [DTrp(6Br)1-bovine GPR7L(29)]
Sort entries by IC50 of intracellular cAMP production suppression (cAMP production inhibition rate) from minimum to maximum value. Would you mind listing the labels in the order asked for? A, C, D, B
